B1: glmS ribozyme (parent)
chain: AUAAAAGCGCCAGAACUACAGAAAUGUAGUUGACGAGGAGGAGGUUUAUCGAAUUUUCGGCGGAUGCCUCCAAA

# Variants of: B1
# test summary: self-cleavage kobs at 40 uM GlcN6P; higher = faster cleavage; RNA array
# settings: with glucosamine-6-phosphate
Variants at the floor of the assay were thinned out.
Field: self-cleavage kobs at 40 uM GlcN6P. Provide a value for each of the variants that follow.

Reference set, count: 3
Could you tell me which self-cleavage kobs at 40 uM GlcN6P is on file for A39U U46G ?
5.61e-05 s⁻¹

Could you tell me which self-cleavage kobs at 40 uM GlcN6P is on file for C16U U55G C68U ?
0.000134 s⁻¹

Could you tell me which self-cleavage kobs at 40 uM GlcN6P is on file for G29U U45G G59C C67U ?
< 1e-05 s⁻¹

Need self-cleavage kobs at 40 uM GlcN6P for each of these variants.
1. A6G G35U U56A
2. C10U C16G G29U

1: < 1e-05 s⁻¹; 2: < 1e-05 s⁻¹

Need self-cleavage kobs at 40 uM GlcN6P for each of these variants.
1. A15C C34A G37U G41A
2. A14U C67A
3. G29U C34G
4. C8G A15G
5. G62C C67G
6. A6C C8A
7. G43C U46G

["< 1e-05 s⁻¹", "6.24e-05 s⁻¹", "< 1e-05 s⁻¹", "< 1e-05 s⁻¹", "< 1e-05 s⁻¹", "< 1e-05 s⁻¹", "< 1e-05 s⁻¹"]

Need self-cleavage kobs at 40 uM GlcN6P for each of these variants.
1. C16A U56A
2. A12U A52G C67U
3. A14U C71U
4. G32C A36G C61U U69A
5. A14G G41C

1: 2.51e-05 s⁻¹; 2: 7.05e-05 s⁻¹; 3: 0.000206 s⁻¹; 4: < 1e-05 s⁻¹; 5: 4.74e-05 s⁻¹

Need self-cleavage kobs at 40 uM GlcN6P for each of these variants.
1. C8G G63A
2. C11G

< 1e-05 s⁻¹
< 1e-05 s⁻¹

Need self-cleavage kobs at 40 uM GlcN6P for each of these variants.
1. A12U G35U U49C
2. G9A C58G
3. C16U U30A G37A G40U U65A
4. U31G U47C

< 1e-05 s⁻¹
< 1e-05 s⁻¹
< 1e-05 s⁻¹
2.84e-05 s⁻¹

Need self-cleavage kobs at 40 uM GlcN6P for each of these variants.
1. U57G C58U
2. G38A U46G
3. C16A G44C C50A
4. A39G G66U
5. U54C U55C
6. C34U C50G A53U C68G

< 1e-05 s⁻¹
< 1e-05 s⁻¹
< 1e-05 s⁻¹
0.000107 s⁻¹
0.000294 s⁻¹
8.23e-05 s⁻¹

Need self-cleavage kobs at 40 uM GlcN6P for each of these variants.
1. U31A G37A C50G A53U C67U
2. A14U G43A C61G U65A
3. C61A C70A
4. A14G G21U C67U
5. U46C U47A
6. A14G U55G

5.38e-05 s⁻¹
< 1e-05 s⁻¹
< 1e-05 s⁻¹
0.000937 s⁻¹
9.34e-05 s⁻¹
0.00161 s⁻¹

Need self-cleavage kobs at 40 uM GlcN6P for each of these variants.
1. C16G A36U C50G C68G
2. G43C U69C
3. A48U A52U C67A
4. G60U C70G
5. G7A C50U
6. G41U G63A

1: 0.000149 s⁻¹; 2: < 1e-05 s⁻¹; 3: < 1e-05 s⁻¹; 4: < 1e-05 s⁻¹; 5: < 1e-05 s⁻¹; 6: < 1e-05 s⁻¹
